assay: In vitro inhibitory activity against prolonging prothrombin time as anticoagulant effect on extrinsic coagulation pathway; assay type: functional; conditions: Homo sapiens
Checkbox rule: Concentration prolonging prothrombin time lower than 20 µM = true; Concentration prolonging prothrombin time not lower than 20 µM = false.

compound | class
CC(CCc1ccccc1)Nc1c(F)c(Oc2cccc(C(=N)N)c2)nc(Oc2ccc(C(=O)NCCCCO)cc2C(=O)O)c1F (stereo not given) | true
COc1cccc(CNC(=O)c2ccc(Oc3nc(Oc4cccc(C(=N)N)c4)c(F)c(NC(C)CCc4ccccc4)c3F)c(C(=O)O)c2)c1 (stereo not given) | false
C[C@H](CCc1ccccc1)Nc1c(F)c(Oc2cccc(C(=N)N)c2)nc(Oc2ccccc2C(=O)O)c1F | false
CC(CCc1ccccc1)Nc1c(F)c(Oc2cccc(C(=N)N)c2)nc(Oc2ccc(C(C)C)cc2C(=O)O)c1F (stereo not given) | false
CNc1ccc(Oc2nc(Oc3cccc(C(=N)N)c3)c(F)c(NC(C)CCc3ccccc3)c2F)c(C(=O)O)c1 (stereo not given) | false
CC(CCc1ccccc1)Nc1c(F)c(Oc2cccc(C(=N)N)c2)nc(Oc2ccccc2C(=O)O)c1F (stereo not given) | false
CC(CCc1ccccc1)Nc1c(F)c(Oc2cccc(C(=N)N)c2)nc(Oc2ccc(C(=O)NC(CO)CO)cc2C(=O)O)c1F (stereo not given) | true
CC(C)CNC(=O)c1ccc(Oc2nc(Oc3cccc(C(=N)N)c3)c(F)c(NC(C)CCc3ccccc3)c2F)c(C(=O)O)c1 (stereo not given) | false
CCN(CC)c1ccc(Oc2nc(Oc3cccc(C(=N)N)c3)c(F)c(NC(C)CCc3ccccc3)c2F)c(C(=O)O)c1 (stereo not given) | false
CC(CCc1ccccc1)Nc1c(F)c(Oc2cccc(C(=N)N)c2)nc(Oc2ccc(C(=O)NCCCO)cc2C(=O)O)c1F (stereo not given) | true
CC(CCc1ccccc1)Nc1c(F)c(Oc2cccc(C(=N)N)c2)nc(Oc2ccc(C(=O)NC(C)(C)CO)cc2C(=O)O)c1F (stereo not given) | true
CC(CCc1ccccc1)Nc1c(F)c(Oc2cccc(C(=N)N)c2)nc(Oc2ccc(C(=O)NCc3cccc(O)c3)cc2C(=O)O)c1F (stereo not given) | false
CC(CCc1ccccc1)Nc1c(F)c(Oc2cccc(C(=N)N)c2)nc(Oc2ccc(N(C)C)cc2C(=O)O)c1F (stereo in doubt; 19) | false
CC(CCc1ccccc1)Nc1c(F)c(Oc2cccc(C(=N)N)c2)nc(Oc2ccc(C(C)(C)C)cc2C(=O)O)c1F (stereo not given) | false
CC(CCc1ccccc1)Nc1c(F)c(Oc2cccc(C(=N)N)c2)nc(Oc2ccc(-c3ccccc3)cc2C(=O)O)c1F (stereo not given) | false
